# target_or_system: Histone deacetylase 2 (Homo sapiens, UniProt Q92769)
# Sequence (Q92769 whole entry): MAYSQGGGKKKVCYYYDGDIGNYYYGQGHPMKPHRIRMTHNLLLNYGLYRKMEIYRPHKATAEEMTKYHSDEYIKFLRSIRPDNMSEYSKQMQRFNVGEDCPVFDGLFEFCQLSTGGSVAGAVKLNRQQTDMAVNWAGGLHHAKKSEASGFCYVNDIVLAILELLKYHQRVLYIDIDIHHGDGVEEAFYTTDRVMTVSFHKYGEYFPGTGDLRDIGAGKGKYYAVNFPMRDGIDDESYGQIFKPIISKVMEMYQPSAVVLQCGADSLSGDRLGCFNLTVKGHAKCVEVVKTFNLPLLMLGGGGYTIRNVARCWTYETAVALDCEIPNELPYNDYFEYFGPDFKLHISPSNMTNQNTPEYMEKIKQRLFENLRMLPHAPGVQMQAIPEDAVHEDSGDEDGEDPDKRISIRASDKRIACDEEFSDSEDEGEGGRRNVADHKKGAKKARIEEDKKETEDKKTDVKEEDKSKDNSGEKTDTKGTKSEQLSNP
# protocol_details: Inhibition of recombinant HDAC2 (unknown origin) incubated for 10 mins using Boc-Lys(acetyl)-AMC fluorogenic substrate by homogeneous fluorescence release assay
quantity_kind: IC50

Inquiry: # input molecule: `COc1ccc(-c2noc(CCCCCCC(=O)NO)n2)cc1` ; wanted: its IC50
Reply text: > 10 µM

Inquiry: And for `Nc1ccccc1NC(=O)CCCCCCc1nc(-c2ccc([N+](=O)[O-])cc2)no1` ?
Reply text: > 10 µM

Inquiry: And for `Nc1ccccc1NC(=O)CCCCCCc1nc(-c2ccccc2Cl)no1` ?
Reply text: > 10 µM

---

# target_or_system: Histone deacetylase 2 (Homo sapiens)
# protocol_details: Inhibition of recombinant HDAC2 (unknown origin) incubated for 10 mins using Boc-Lys(acetyl)-AMC fluorogenic substrate by homogeneous fluorescence release assay
pIC50: −log10 of the molar value.
Response key: satisfied means pIC50 >= 6; not satisfied means pIC50 < 6.

Inquiry: Could you verify whether the entry `O=C(CCCCCCc1nc(-c2cccc([N+](=O)[O-])c2)no1)NO` shows pIC50 of no less than 6?
Reply text: not satisfied

Inquiry: And for `O=C(CCCCCCc1nc(-c2ccc([N+](=O)[O-])cc2)no1)NO` ?
Reply text: satisfied

Inquiry: And for `Nc1ccccc1NC(=O)CCCCCCc1nc(-c2cccnc2)no1` ?
Reply text: not satisfied

---

Can you tell me IC50 for the items I'm about to list?
# target_or_system: Histone deacetylase 8 (Homo sapiens)
# Sequence (Q9BY41 whole entry): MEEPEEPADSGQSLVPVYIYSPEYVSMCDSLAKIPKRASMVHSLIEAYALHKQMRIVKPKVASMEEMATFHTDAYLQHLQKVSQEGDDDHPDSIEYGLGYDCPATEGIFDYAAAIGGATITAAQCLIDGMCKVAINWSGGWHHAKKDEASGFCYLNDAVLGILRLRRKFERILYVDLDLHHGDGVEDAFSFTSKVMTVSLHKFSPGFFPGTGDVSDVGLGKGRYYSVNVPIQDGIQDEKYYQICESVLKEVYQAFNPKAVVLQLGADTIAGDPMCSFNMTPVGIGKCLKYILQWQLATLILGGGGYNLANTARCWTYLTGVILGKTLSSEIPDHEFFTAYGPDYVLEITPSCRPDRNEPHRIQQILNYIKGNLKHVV
# protocol_details: Inhibition of recombinant HDAC8 (unknown origin) incubated for 10 mins using Boc-Lys(acetyl)-AMC fluorogenic substrate by homogeneous fluorescence release assay

Inquiry: # input molecule: `O=C(CCCCCCc1nc(-c2cccs2)no1)NO` ; wanted: its IC50
Reply text: 1.92 µM

Inquiry: And for `O=C(CCCCCCc1nc(-c2cccnc2)no1)NO` ?
Reply text: 1.83 µM

Inquiry: And for `Nc1ccccc1NC(=O)CCCCCCc1nc(-c2ccccc2)no1` ?
Reply text: > 10 µM

Inquiry: And for `Cc1ccc(-c2noc(CCCCCCC(=O)Nc3ccccc3N)n2)cc1` ?
Reply text: 8.39 µM

Inquiry: And for `Nc1ccccc1NC(=O)CCCCCCc1nc(-c2ccc(C(F)(F)F)cc2)no1` ?
Reply text: > 10 µM

Inquiry: And for `Nc1ccccc1NC(=O)CCCCCCc1nc(-c2ccccc2Cl)no1` ?
Reply text: > 10 µM

Inquiry: And for `O=C(CCCCCCc1nc(-c2ccc(Cl)cc2)no1)NO` ?
Reply text: > 10 µM

Inquiry: And for `COc1ccc(-c2noc(CCCCCCC(=O)Nc3ccccc3N)n2)cc1` ?
Reply text: > 10 µM

Inquiry: And for `Nc1ccccc1NC(=O)CCCCCCc1nc(-c2cccnc2)no1` ?
Reply text: > 10 µM

Inquiry: And for `Nc1ccccc1NC(=O)CCCCCCc1nc(-c2ccc(Cl)cc2)no1` ?
Reply text: > 10 µM

Inquiry: And for `Nc1ccccc1NC(=O)CCCCCCc1nc(-c2ccc(F)cc2)no1` ?
Reply text: > 10 µM

---

Can you tell me pIC50 for the items I'm about to list?
# target_or_system: Histone deacetylase 2 (Homo sapiens)
# protocol_details: Inhibition of recombinant HDAC2 (unknown origin) incubated for 10 mins using Boc-Lys(acetyl)-AMC fluorogenic substrate by homogeneous fluorescence release assay
pIC50 is a log-scale quantity: -log10 of the concentration expressed in molar.

Inquiry: # input compound: `O=C(CCCCCCc1nc(-c2ccccc2)no1)C(F)(F)F` ; wanted: its pIC50
Reply text: 5.98

Inquiry: And for `Cc1ccc(-c2noc(CCCCCCC(=O)Nc3ccccc3N)n2)cc1` ?
Reply text: 6.17

Inquiry: And for `Nc1ccccc1NC(=O)CCCCCCc1nc(-c2ccccc2)no1` ?
Reply text: 6.14
